Assay: NCI Yeast Anticancer Drug Screen. Data for the rad52 strain (AID 147);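 note: 0% = growth of vehicle-treated control cultures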
Conditions: S. cerevisiae rad52 mutant growth inhibition; at 100.0 µM
This is part of a sample that, as a whole, favours compounds with a hit. Of some 79,000 tested, about 15% had one in any assay. Active and inactive are the calls of the source. Cut-off read from the data, not from the text of the source: active = growth inhibition above about 70%; inactive = the rest.
Outcome field: choose from active, inactive

Examples from the recorded data:
{"columns": ["compound", "class"],
 "data": [
  ["O=C1c2cccc3cccc(c23)C(=O)N1O", "active"],
  ["CC(C)OC(=O)NNc1c(Cl)cc(Cl)cc1Cl", "inactive"]
]}

Recorded test outcome, item CCN(CC)CCNc1ccc2nc(C)n3c4ccc(OC)cc4c(=O)c1c23
active

Could you please tell me the result logged for O=[N+]([O-])c1ccc(S(=O)(=O)Cc2ccccc2)c([N+](=O)[O-])c1 in this assay?
active

Tell me the assay call for CCN(CC)CCNc1ccc(C)c2sc3ccc(O)cc3c(=O)c12 please.
active

Outcome logged for COC(=N)c1ccc(O)c(C)c1 in this assay:
inactive

Kindly provide the recorded test outcome for the following compound: O=C1c2ccccc2-c2ccc(N=Cc3ccccc3)cc21
active

What classification did CC(CC/C(=N/O)c1ccccc1)(CC/C(=N\O)c1ccccc1)[N+](=O)[O-] (stereo not drawn) end up with in this test?
active

====

Experiment: NCI Yeast Anticancer Drug Screen. Data for the rad50 strain (AID 155);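 note: 0% = growth of vehicle-only cultures of the same strain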
Details: S. cerevisiae rad50 strain growth inhibition; at 3.7 µM
The panel holds about 79,000 compounds, 15% with a hit somewhere; the sample as a whole holds those more often. Activity calls are given as the source filed them. Rule as the data show it: active = growth inhibition above about 70%; inactive = the rest.
Valid outcomes are listed here; reply with one: class 1 = active, class 0 = inactive

Reference set (5 entries):
{"columns": ["compound", "class"],
 "data": [
  ["CCC(/C=C/c1ccccc1)=N\\Nc1ccc(Cl)cc1", "class 0"],
  ["CSc1nc(-c2ccccc2)nc(=[N+]2CCOCC2)s1", "class 0"],
  ["O=C1CSC(c2ccccc2)N1c1ccc(-c2ccc(-n3c(-c4ccccc4)nc4ccccc4c3=O)cc2)cc1 (stereo not given)", "class 0"],
  ["Nc1cc(Cl)ccc1Nc1ccccc1", "class 0"],
  ["COC1=CCC23C(=O)C=CC(=O)C2(C1)C(=O)c1ccccc1C3=O (stereo not given)", "class 0"]
]}

State the result this test recorded for CCN(CC)CCCNc1ccc([N+](=O)[O-])c2nc3ccc(OC)cc3c(NCCCN(CC)CC)c12 .
class 0

Fill in: this test's call for O=[N+]([O-])c1ccc(C(c2c[nH]c3ccccc23)c2c[nH]c3ccccc23)cc1 is ___
class 1

Look up the recorded call for Cc1cccc(/C=N/NC(=S)NC2CCCCC2)n1 in this test.
class 0

Would you mind telling me which call this test gave Cc1cccc(C)c1NC(=O)CCC(=O)C(C)C(=O)c1ccc(O)cc1 (stereo not given) ?
class 0

Which outcome was entered for the compound O=S1(=O)CCC2=CC(C(F)(F)F)=CC(C(F)(F)F)=CN21 in this test?
class 1

====

Experiment: NCI Yeast Anticancer Drug Screen. Data for the bub3 strain (AID 167)
Details: S. cerevisiae bub3 mutant strain, at 33.0 µM
Compounds without any hit were thinned out: in the full panel of roughly 79,000, 15% have a hit. Activity calls are given as the source filed them. Cut-off read from the data, not from the text of the source: active = growth inhibition above about 70%; inactive = the rest.
Hi! Could you answer with just one of these? true (active), false (inactive)

{"columns": ["compound", "class"],
 "data": [
  ["CCCCCCCN(CCCCCCC)CC(=O)c1ccc2cc(Cl)c3ccccc3c2c1", "true"],
  ["O=C(NCCCCN(CCCNC(=O)C(F)(F)F)Cc1ccccc1)C(F)(F)F", "false"],
  ["O=C(/C(=C/c1ccc(O)cc1)c1ccccc1)c1ccccc1", "true"],
  ["CC(C(=O)N1C(=O)N(C(=O)C(C)C(O)c2ccccc2)C2CCCCC21)C(O)c1ccccc1 (configuration not stated)", "false"],
  ["CC1=COC2=C(C)C(=O)C(=O)c3c(C)ccc1c32", "true"]
]}

Lab log entry: O=C(O)/C=C\C(=O)Nc1ccc2c(c1)Cc1cc(Cl)ccc1-2 — outcome as called in the assay?
false

# outcome recorded in this test, key = Cc1ccc(Nc2n[nH]c(=S)s2)c(C)c1
false

For CCN(CC)CCNc1ccc2nc(C)n3c4ccc(O)cc4c(=O)c1c23 , what call appears in the results of this test?
false

So what was the verdict on O=S(=O)(NNc1ccccc1)c1ccccc1 in this test?
false

Just curious, what result did N#CCCC1C(C#N)C2(Cl)CC1(Cl)C(Cl)=C2Cl (configuration not stated) get here?
false
